Hi there, I'd appreciate the recorded Activity for every entry that follows.
- Assay target: Cell division protein FtsZ (Bacillus subtilis (strain 168))
- Assay overview: Inhibition of FtsZ-mediated cell division in Bacillus subtilis 168 assessed as drug concentration required to produce filamentation
The answer is to be given in µg/mL; state only the numeric part.

Problem: Please report Activity for the following compound: `CCOc1cccc(C(N)=O)c1`
Solution: 500

Problem: Kindly indicate its recorded Activity. Item: `CCCCCCCCCOc1ccc(F)c(C(N)=O)c1Cl`
Solution: 0.5

Problem: In one line, give reported Activity of the entry `CCCCCCCCCOc1ccc(F)c(C(N)=O)c1` .
Solution: 1

Problem: Given the compound `CCCCCCCCOc1cccc(C(N)=O)c1` , write its reported Activity.
Solution: 0.37

Problem: Determine from records and report Activity for `CCCCCOc1cccc(C(N)=O)c1`
Solution: 24

Problem: Return reported Activity. Input compound: `CCCCCCCCCOc1ccc(Cl)c(C(N)=O)c1F`
Solution: 0.25

Problem: Please supply the value of reported Activity for the item `COc1cccc(C(N)=O)c1`
Solution: 500
